- target-system: T1, IL10Rα/IL2Rγ receptor (human) (UniProt Q13651)
- T1 sequence (looked up) 1: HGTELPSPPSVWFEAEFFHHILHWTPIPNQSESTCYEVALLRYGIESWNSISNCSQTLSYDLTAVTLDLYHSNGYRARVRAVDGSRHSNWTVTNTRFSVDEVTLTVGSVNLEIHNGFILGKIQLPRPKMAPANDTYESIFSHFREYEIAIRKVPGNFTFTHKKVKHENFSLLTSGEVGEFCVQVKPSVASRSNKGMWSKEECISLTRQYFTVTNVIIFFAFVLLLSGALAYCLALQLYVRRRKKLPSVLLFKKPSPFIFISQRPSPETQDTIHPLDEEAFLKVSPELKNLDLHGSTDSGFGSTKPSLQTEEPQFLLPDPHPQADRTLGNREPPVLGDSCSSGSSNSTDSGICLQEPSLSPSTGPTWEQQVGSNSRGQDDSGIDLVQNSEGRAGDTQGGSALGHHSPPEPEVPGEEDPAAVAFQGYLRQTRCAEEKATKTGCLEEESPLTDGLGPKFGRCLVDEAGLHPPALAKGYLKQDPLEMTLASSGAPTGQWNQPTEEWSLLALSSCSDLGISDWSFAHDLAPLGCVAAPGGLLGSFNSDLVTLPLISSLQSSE
- T1 sequence (looked up) 2: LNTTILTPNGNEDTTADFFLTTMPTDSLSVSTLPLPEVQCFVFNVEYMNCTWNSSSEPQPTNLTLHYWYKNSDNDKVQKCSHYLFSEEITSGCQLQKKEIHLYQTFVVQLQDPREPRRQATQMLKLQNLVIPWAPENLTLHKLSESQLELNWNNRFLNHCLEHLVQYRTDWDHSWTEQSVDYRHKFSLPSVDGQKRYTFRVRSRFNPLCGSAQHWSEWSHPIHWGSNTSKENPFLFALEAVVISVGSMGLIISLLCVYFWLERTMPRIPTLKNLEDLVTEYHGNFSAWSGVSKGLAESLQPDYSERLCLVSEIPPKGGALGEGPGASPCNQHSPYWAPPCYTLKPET
- procedure-summary: cell-based or functional assay
Granzyme B secretion, CD8 T cells, at 0.01 µM values for the binders below.
State just the number; it will be interpreted in pg/mL.

binder	unit-tag	result-value
hIL10Ra_VHH14 - hIL2Rg_VHH19, No linker, tag his (bispecific antibody, not shown: small tags and cut ends) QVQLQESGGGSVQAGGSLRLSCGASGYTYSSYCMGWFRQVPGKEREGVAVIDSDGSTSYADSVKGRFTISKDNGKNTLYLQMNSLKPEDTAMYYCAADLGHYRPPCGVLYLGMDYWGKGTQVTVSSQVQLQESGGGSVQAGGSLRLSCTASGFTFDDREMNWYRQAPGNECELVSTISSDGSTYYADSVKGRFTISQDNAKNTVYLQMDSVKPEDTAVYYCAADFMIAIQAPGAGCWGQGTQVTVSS	pg/mL	44200
hIL10Ra_VHH14 - hIL2Rg_VHH19, linker GGSGGS, tag his (bispecific antibody, not shown: small tags and cut ends) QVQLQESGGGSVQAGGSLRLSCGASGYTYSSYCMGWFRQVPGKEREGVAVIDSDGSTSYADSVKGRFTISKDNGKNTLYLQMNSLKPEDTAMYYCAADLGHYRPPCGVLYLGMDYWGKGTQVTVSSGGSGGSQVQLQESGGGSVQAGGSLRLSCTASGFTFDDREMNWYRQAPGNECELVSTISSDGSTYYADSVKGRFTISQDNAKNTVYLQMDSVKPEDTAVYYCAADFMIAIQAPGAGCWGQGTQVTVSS	pg/mL	54100
hIL10Ra_VHH14 - hIL2Rg_VHH19, linker …, tag his (bispecific antibody, not shown: small tags and cut ends) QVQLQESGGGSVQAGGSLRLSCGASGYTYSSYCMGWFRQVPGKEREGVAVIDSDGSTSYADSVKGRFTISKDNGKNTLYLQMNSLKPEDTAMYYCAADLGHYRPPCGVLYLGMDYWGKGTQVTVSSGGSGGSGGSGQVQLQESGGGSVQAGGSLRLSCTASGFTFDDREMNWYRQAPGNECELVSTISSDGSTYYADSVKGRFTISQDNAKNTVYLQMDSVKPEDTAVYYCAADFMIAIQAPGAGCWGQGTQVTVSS	pg/mL	71000

Query: What does the record list as Granzyme B secretion, CD8 T cells, at 0.01 µM for hIL10Ra_VHH14 - hIL2Rg_VHH19, linker GGGS, tag Fc (bispecific antibody, not shown: a dimerising Fc or GST) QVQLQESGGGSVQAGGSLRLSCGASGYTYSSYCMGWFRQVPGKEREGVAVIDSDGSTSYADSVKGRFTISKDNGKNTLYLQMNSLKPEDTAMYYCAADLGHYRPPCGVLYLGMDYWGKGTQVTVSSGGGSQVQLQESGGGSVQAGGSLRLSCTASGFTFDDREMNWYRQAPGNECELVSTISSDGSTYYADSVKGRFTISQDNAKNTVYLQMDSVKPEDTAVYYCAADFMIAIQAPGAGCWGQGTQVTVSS ?
Result: 79000
